Where a name gives a salt, the structure may show the parent alone.
// values below are IC50; system is UniProt Q9BUB5
Sequence (Q9BUB5 whole entry): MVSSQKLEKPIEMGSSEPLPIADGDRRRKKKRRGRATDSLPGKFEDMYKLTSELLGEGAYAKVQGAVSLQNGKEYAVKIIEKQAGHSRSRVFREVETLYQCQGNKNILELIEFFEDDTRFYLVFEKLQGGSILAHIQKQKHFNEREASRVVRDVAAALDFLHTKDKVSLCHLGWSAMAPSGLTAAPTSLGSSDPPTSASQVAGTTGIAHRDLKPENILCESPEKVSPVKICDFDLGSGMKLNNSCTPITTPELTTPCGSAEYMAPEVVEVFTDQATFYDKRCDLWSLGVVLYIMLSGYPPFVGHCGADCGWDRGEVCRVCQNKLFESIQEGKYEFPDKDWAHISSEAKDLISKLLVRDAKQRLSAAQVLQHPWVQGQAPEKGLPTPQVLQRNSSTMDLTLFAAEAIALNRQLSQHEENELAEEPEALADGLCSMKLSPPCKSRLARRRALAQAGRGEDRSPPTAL

Example results:
O=c1c(Nc2ccncn2)ccc2n1C1(CCCCC1)NC2=S :: 10 to 100 nM
CC1(c2cc(F)cc(Cl)c2)NC(=O)c2ccc(Nc3ccncn3)c(=O)n21 (stereo not shown) :: 10 to 100 nM
CC(C)(C)C1(C)NC(=O)c2c(Cl)cc(Nc3cc(N)ncn3)c(=O)n21 (stereo not shown) [Cpd. No. 105, hydrochloride] :: < 10 nM
Cc1cc(Nc2cc(N)ncn2)c(=O)n2c1C(=O)NC2(C)c1cccc(F)c1 (stereo not shown) :: < 10 nM
Cl.Nc1cc(Nc2cc(Cl)c3n(c2=O)C2(CCC(F)(F)CC2)NC3=O)ncn1 [Cpd. No. 99, hydrochloride] :: < 10 nM

Ask: Specify IC50 for CC1(c2cc(Cl)cc(Cl)c2)NC(=O)c2ccc(Nc3ccncn3)c(=O)n21 (stereo not shown) , system UniProt Q9BUB5.
Result: 10 to 100 nM

Ask: Specify IC50 for Cl.Cl.Nc1cc(Nc2cc(Cl)c3n(c2=O)C2(CCNCC2)NC3=O)ncn1 [Cpd. No. 108, dihydrochloride] , system UniProt Q9BUB5.
Result: < 10 nM

Ask: Specify IC50 for Nc1cc(Nc2cc(Cl)c3n(c2=O)C2(CCc4ccc(Cl)cc42)NC3=O)ncn1 (stereo not shown) [Cpd. No. 111, hydrochloride] , system UniProt Q9BUB5.
Result: < 10 nM
